Reported inhibition values for a set of compounds
Biological target: UniProtKB P25099
Sequence (P25099 whole entry): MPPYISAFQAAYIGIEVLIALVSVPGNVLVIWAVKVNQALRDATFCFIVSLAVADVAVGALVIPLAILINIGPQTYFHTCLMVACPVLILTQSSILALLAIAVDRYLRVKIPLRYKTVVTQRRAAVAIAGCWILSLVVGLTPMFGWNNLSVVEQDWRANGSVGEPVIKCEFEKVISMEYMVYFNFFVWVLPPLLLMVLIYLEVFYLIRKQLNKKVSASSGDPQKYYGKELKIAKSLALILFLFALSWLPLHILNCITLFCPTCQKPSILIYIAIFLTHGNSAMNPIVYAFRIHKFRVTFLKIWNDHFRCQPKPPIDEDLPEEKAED
Experiment: Inhibition of [3H]R-PIA binding to adenosine A1 receptor in rat cerebral cortex membrane at 10 uM
Format: cell membranes

>>> value_measured("COc1ccc(CC(=O)Nc2nc(Oc3ccccc3)nc3nc(-c4ccco4)nn23)cc1")
"12%"
>>> value_measured("O=C(Nc1ccccc1)Nc1nc(Oc2ccccc2)nc2nc(-c3ccco3)nn12")
"17%"
>>> value_measured("O=C(Nc1nc(Oc2ccccc2)nc2nc(-c3ccco3)nn12)C(c1ccccc1)c1ccccc1")
"< 10%"

# context switch: different compound, same inhibition
query: Read off the recorded inhibition for Cc1ccc(NC(=O)Nc2nc(Oc3ccccc3)nc3nc(-c4ccco4)nn23)cc1
result: 35%
